Test system: six V600E BRAF melanoma cell lines
ASSAY EXPLANATION: Screening of recombinant RTK ligands for ability to confer resistance to BRAFi (PLX4720) or MEKi (PD184352) (Table 4)
Format: cell-based, human
Set-up: scale not given here
CONDITION CONTEXT: A2058, PD184352 - 1 uM, ligand 6.25 ng/ml
PARAMETER MEASURED: ability of recombinant RTK ligand to confer resistance
I'd appreciate a reply containing only the number, no unit.

Ephrin-A4 (protein, UniProt P52798 26-170, looked up) Ephrin-A4: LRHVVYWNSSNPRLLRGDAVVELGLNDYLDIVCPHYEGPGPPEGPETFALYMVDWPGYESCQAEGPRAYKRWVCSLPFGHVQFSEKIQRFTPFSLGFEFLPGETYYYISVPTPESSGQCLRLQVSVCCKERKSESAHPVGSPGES: 1.02
GDNF (protein, UniProt P39905 78-211, looked up) Glial cell line-derived …: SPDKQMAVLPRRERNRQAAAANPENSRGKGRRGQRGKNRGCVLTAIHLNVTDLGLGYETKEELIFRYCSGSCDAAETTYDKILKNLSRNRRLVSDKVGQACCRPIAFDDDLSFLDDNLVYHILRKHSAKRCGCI: 1.00

API: the following record is the query input.
For the molecule shown here, VEGF-C (protein, UniProt P49767 112-227, looked up) Vascular endothelial growth …: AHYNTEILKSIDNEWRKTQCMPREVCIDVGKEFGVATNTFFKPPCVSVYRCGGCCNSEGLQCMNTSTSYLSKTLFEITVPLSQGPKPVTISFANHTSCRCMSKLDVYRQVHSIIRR , give the reported ability of recombinant RTK ligand to confer resistance. 1.02

Reference source: patent US20140348819A1
